Test: in vitro
Condition description: human, hek293t cells
Assay metric: viability at 48 h, 25 µM (%)
Only the number, expressed in %, is required.

Example cases with answers are listed next.
{"Compound": "O=C(CCl)NS(=O)(=O)c1ccc(Cl)cc1 [4-E18]", "Assay metric": "viability at 48 h, 25 µM", "Readout units": "%", "Data value": 79.9}
{"Compound": "CC(Cl)C(=O)N1CCN(C(C)C)c2ccccc2C1 (centres unmarked) [7-O07]", "Assay metric": "viability at 48 h, 25 µM", "Readout units": "%", "Data value": 81.6}
{"Compound": "CC(Cl)C(=O)Nc1cccc(Cl)c1Cl (centres unmarked) [4-L13]", "Assay metric": "viability at 48 h, 25 µM", "Readout units": "%", "Data value": 81.1}
{"Compound": "COc1ccc(C=C(C#N)C(=O)Nc2ccc(Cl)c(Cl)c2)cc1 [8-C03]", "Assay metric": "viability at 48 h, 25 µM", "Readout units": "%", "Data value": 99.6}
{"Compound": "Cc1ccc(C=C(C#N)C(=O)NC(N)=O)o1 [8-D21]", "Assay metric": "viability at 48 h, 25 µM", "Readout units": "%", "Data value": 101}

Asked: Fill in: viability at 48 h, 25 µM of O=C(CCl)NC(=O)c1ccc(OC(F)F)cc1 [5-J22] is ___
Given back: 108

Asked: Fill in: viability at 48 h, 25 µM of CC(Cl)C(=O)NCC1(n2ccnn2)CC1 (centres unmarked) [6-B20] is ___
Given back: 104
